test system: TAB165; assay: qHTS profiling for inhibitors of Plasmodium falciparum proliferation (AID 504749); also: nearly all actives have a fitted effect of over 60% in size; settings: P. falciparum in erythrocytes, SYBR Green DNA, 72 h; series mostly up to 28.7 µM
Inconclusive results are not listed. Activity calls are given as the source filed them. Calls follow the shape of the dose curve; as a rule, active = well fitted inhibition curve with a large enough effect; inconclusive = small, poorly fitted or top-dose-only effect; inactive = flat fitted curve, though single readings scatter.
// classify into true for active, false for inactive

Reference set, count: 5
[
  {
    "molecule": "[O-][n+]1cccc(CO)c1",
    "classAssignment": "false"
  },
  {
    "molecule": "CC1=C(/C=C/C(C)=C/C=C/C(C)=C/C(=O)O)C(C)(C)CCC1",
    "classAssignment": "false"
  },
  {
    "molecule": "CC(=O)c1ccc2c(c1)N(CCCN(C)C)c1ccccc1S2",
    "classAssignment": "false"
  },
  {
    "molecule": "C#CCN(C)Cc1ccccc1",
    "classAssignment": "false"
  },
  {
    "molecule": "CCN(CC)CCSC(=O)C(c1ccccc1)c1ccccc1",
    "classAssignment": "false"
  }
]

// param item: Nc1ccc(S(=O)(=O)Nc2ccc(Cl)nn2)cc1 ; yields the recorded call
true

// param item: CCOC(=O)c1ccc(O)cc1 ; yields the recorded call
false

// param item: C=Cc1c(C)c2cc3[nH]c(cc4nc(cc5nc(cc1[nH]2)C(C)=C5CCC(=O)O)C(CCC(=O)O)=C4C)c(C)c3C=C ; yields the recorded call
false

// param item: CCCCCCCCCCCCOS(=O)(=O)O ; yields the recorded call
false

// param item: CSc1ccc2c(c1)N(CCC1CCCCN1C)c1ccccc1S2 (configuration not stated) ; yields the recorded call
true

// param item: CN1CCN(C2Cc3ccccc3Sc3ccc(Cl)cc32)CC1 (configuration not stated) ; yields the recorded call
true

// param item: Cc1cc2c(cc1S(N)(=O)=O)S(=O)(=O)CCC2 ; yields the recorded call
false

----------
test: qHTS for differential inhibitors of proliferation of Plasmodium falciparum line 3D7 (AID 1876);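 also: parasite growth measured after three days of culture; 0% = vehicle wells and -100% = reference inhibitor wells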; conditions: P. falciparum 3D7 proliferation inhibition; series mostly up to 28.7 µM
Results filed as inconclusive are left out. The source made the active and inactive calls. Calls follow the shape of the dose curve; as a rule, active = well fitted curve in the direction sought with a large enough effect; inconclusive = small, poorly fitted or top-dose-only effect, or another doubt; inactive = no such curve, though single readings can be large or run the other way.
// classify into y for active, n for inactive

// param item: NC1CCN(c2cccc(Cl)n2)CC1 ; yields the recorded call
n

----------
test system: CP247; assay: qHTS profiling for inhibitors of Plasmodium falciparum proliferation (AID 504749); also: nearly all actives have a fitted effect of over 60% in size; details: P. falciparum in erythrocytes, SYBR Green DNA, 72 h; series mostly up to 28.7 µM
Records with an inconclusive call do not appear. The source made the active and inactive calls. Calls come from the whole dose curve; as a rule, active = well fitted inhibition curve with a large enough effect; inconclusive = small, poorly fitted or top-dose-only effect; inactive = flat fitted curve, though single readings scatter.
// classify into YES = active, NO = inactive

[
  {
    "molecule": "CC1=C(/C=C/C(C)=C/C=C/C(C)=C/C(=O)O)C(C)(C)CCC1",
    "measuredTarget": "CP247",
    "classAssignment": "NO"
  }
]

// param item: OCc1cc(C(O)CNCCCCCCOCCCCc2ccccc2)ccc1O (stereo unspecified) ; yields the recorded call
NO

// param item: O=c1[nH]c(=O)c2[nH]c(=O)[nH]c2[nH]1 ; yields the recorded call
NO

// param item: O=C1OC(OC(=O)c2cccnc2Nc2cccc(C(F)(F)F)c2)c2ccccc21 (stereo unspecified) ; yields the recorded call
NO

----------
system: HEK293; experiment: Cytotoxic Profiling of Annotated Libraries Using Quantitative High-Throughput Screening (AID 1296008); conditions: Five cell lines viability, CellTiter-Glo ATP luminescence, 48-72 h; also: nearly all actives have a fitted effect of over 60% in size; also: potency is read from the fitted curve at half-maximal effect
Results filed as inconclusive are left out. The source made the active and inactive calls. The call rests on the fitted dose curve; in most records, active means well fitted inhibition curve with a large enough effect; inconclusive means small, poorly fitted or top-dose-only effect; inactive means flat fitted curve, though single readings scatter.
measuredProperty: Potency

[
  {
    "molecule": "CC(=O)O[C@@]12CO[C@@H]1C[C@H](O)[C@@]1(C)C(=O)[C@H](O)C3=C(C)[C@@H](OC(=O)[C@H](O)[C@@H](NC(=O)OC(C)(C)C)c4ccccc4)C[C@@](O)([C@@H](OC(=O)c4ccccc4)[C@H]21)C3(C)C",
    "Potency": "2.1 nM (active)"
  },
  {
    "molecule": "CCCCCCCCCCCCCCCC(=O)NCCO",
    "Potency": "inactive"
  },
  {
    "molecule": "Cc1ncc(COP(=O)(O)O)c(C=O)c1O",
    "Potency": "inactive"
  },
  {
    "molecule": "O=C(O)CN1C(=O)c2cccc3cccc(c23)C1=O",
    "Potency": "inactive"
  },
  {
    "molecule": "C[C@H]1O[C@@H](n2cc(F)c(=O)[nH]c2=O)[C@H](O)[C@@H]1O",
    "Potency": "inactive"
  }
]

Reported Potency of O=C(O)Cc1sc(-c2ccccc2)nc1-c1ccc(Cl)cc1 : inactive

Reported Potency of C[C@H](N)[C@H](O)c1cccc(O)c1 : inactive

----------
test system: CAOV3; assay: Primary qHTS to identify gynecologic anti-cancer compounds using libraries of approved drugs and bioactive compounds (AID 1345084); conditions: Gynecologic cancer cell panel viability, ATPlite luminescence, 48 h; series mostly up to 57.5 µM; also: nearly all actives have a fitted effect of over 55% in size
Records with an inconclusive call do not appear. Active and inactive are the calls of the source. Calls follow the shape of the dose curve; as a rule, active = well fitted cell-killing curve with a large enough effect; inconclusive = small, poorly fitted or top-dose-only effect, or effect the other way; inactive = flat fitted curve, though single readings scatter.
measuredProperty: outcome

Solved cases (8 shown):
[
  {
    "molecule": "c1ccc2c(CC3=NCCN3)cccc2c1",
    "resultValue": "inactive"
  },
  {
    "molecule": "CN1[C@@H]2CC[C@H]1CC(OC(=O)C(O)c1ccccc1)C2 (some centres not stated)",
    "resultValue": "inactive"
  },
  {
    "molecule": "CC(C)(C)NCC(O)COc1ccc(NC(=O)NC2CCCCC2)cc1 (configuration not stated)",
    "resultValue": "inactive"
  },
  {
    "molecule": "COC(=O)C1=C(C)NC(C)=C(C(=O)OC)C1c1ccccc1[N+](=O)[O-]",
    "resultValue": "inactive"
  },
  {
    "molecule": "CCCCc1ncc(/C=C(\\Cc2cccs2)C(=O)O)n1Cc1ccc(C(=O)O)cc1",
    "resultValue": "inactive"
  },
  {
    "molecule": "CCCn1cnc2c1c(=O)n(CCCCC(C)=O)c(=O)n2C",
    "resultValue": "inactive"
  },
  {
    "molecule": "CN(C)CCC=C1c2ccccc2CCc2ccccc21",
    "resultValue": "inactive"
  },
  {
    "molecule": "NC(=O)N/N=C/c1ccc([N+](=O)[O-])o1",
    "resultValue": "inactive"
  }
]

Reported outcome of [O-][n+]1cccc(CO)c1 : inactive

Reported outcome of CC(=O)Oc1ccc(C2(c3ccc(OC(C)=O)cc3)C(=O)Nc3ccccc32)cc1 : inactive

Reported outcome of O=C(O)[C@H](O)c1ccccc1 : inactive

Reported outcome of NC1CCN(c2cccc(Cl)n2)CC1 : inactive

----------
assay: Primary qHTS for inhibitors of nuclear receptor binding SET domain protein 2 (NSD2) in an isogenic RCH-ACV NSD2 p.E1099K mutant (9B) (AID 1645876); conditions: RCH-ACV (leukaemia line) NSD2 E1099K (9B) viability, CellTiter-Glo, 72 h; series mostly up to 44.9 µM; also: nearly all actives have a fitted effect of over 70% in size
Inconclusive results are not listed. Calls of active or inactive are those of the source. Calls follow the shape of the dose curve; as a rule, active = well fitted inhibition curve with a large enough effect; inconclusive = small, poorly fitted or top-dose-only effect; inactive = flat fitted curve, though single readings scatter.
// classify into true (1) for active, false (0) for inactive

Reference set, count: 8
[
  {
    "molecule": "O=C(O)c1ccccc1-c1ccc(C(F)(F)F)cc1",
    "classAssignment": "false (0)"
  },
  {
    "molecule": "NC(=O)c1ncn([C@@H]2O[C@H](CO)[C@@H](O)[C@H]2O)c1N",
    "classAssignment": "false (0)"
  },
  {
    "molecule": "O=C(O)[C@H](O)c1ccccc1",
    "classAssignment": "false (0)"
  },
  {
    "molecule": "NCCNCCNCCN",
    "classAssignment": "false (0)"
  },
  {
    "molecule": "Nc1ccc(S(=O)(=O)Nc2ccccc2)cc1",
    "classAssignment": "false (0)"
  },
  {
    "molecule": "CCOc1nc2cccc(C(=O)O)c2n1Cc1ccc(-c2ccccc2-c2nn[nH]n2)cc1",
    "classAssignment": "false (0)"
  },
  {
    "molecule": "O=C(O)CC(O)C(=O)O (configuration not stated)",
    "classAssignment": "false (0)"
  },
  {
    "molecule": "CC(COc1ccccc1)NC(C)C(O)c1ccc(O)cc1 (configuration not stated)",
    "classAssignment": "false (0)"
  }
]

// param item: Cc1ncc([N+](=O)[O-])n1CC(O)CCl (configuration not stated) ; yields the recorded call
false (0)

// param item: O=C(O)COc1nn(Cc2ccccc2)c2ccccc12 ; yields the recorded call
false (0)

// param item: Oc1ccc(C(O)CNCCCCCCNCC(O)c2ccc(O)c(O)c2)cc1O (configuration not stated) ; yields the recorded call
false (0)

// param item: COCCOC(=O)C1=C(C)NC(C)=C(C(=O)OC/C=C/c2ccccc2)C1c1cccc([N+](=O)[O-])c1 (configuration not stated) ; yields the recorded call
true (1)

----------
Target: Single-stranded DNA cytosine deaminase (Homo sapiens) (UniProt Q9GZX7)
Sequence (Q9GZX7 whole entry, looked up): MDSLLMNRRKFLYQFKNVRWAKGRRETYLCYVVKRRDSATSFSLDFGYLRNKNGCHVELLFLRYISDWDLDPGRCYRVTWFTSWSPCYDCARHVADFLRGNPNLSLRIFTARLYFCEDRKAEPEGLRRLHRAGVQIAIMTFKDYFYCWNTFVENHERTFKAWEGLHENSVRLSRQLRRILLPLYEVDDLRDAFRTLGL
Test: Validation qHTS assay for inhibitors of Activation Induced Cytidine Deaminase (AID): AID signal (AID 1347429)
Conditions: Recombinant AID, FRET ssDNA deamination with UDG, fluorescence; series mostly up to 115 µM
Source text: Assay Provider (PI) Patricia Gearhart Ph.D. National Institute on Aging National Institute of Health (NIH), Bethesda, MD Assay Provider (PI) Rahul Kohli Ph.D. Perelman School of Medicine University of Pennsylvania, Philadelphia, PA Activation-Induced Deaminase (AID) is a cytosine deaminase which converts cytosine into uracil within stretches of ssDNA. […] This screen has two signal output, Read 1 evaluates the AID inhibition response. […]
The source made the active and inactive calls. Calls follow the shape of the dose curve; as a rule, active = well fitted inhibition curve with a large enough effect; inconclusive = small, poorly fitted or top-dose-only effect; inactive = no such curve, though single readings can be large or run the other way.
measuredProperty: outcome

Solved cases (8 shown):
[
  {
    "compound": "O=C1N=C(O)CN1/N=C/c1ccc(-c2ccc([N+](=O)[O-])cc2)o1",
    "outcome": "inactive"
  },
  {
    "compound": "NC(=O)c1ncn([C@@H]2O[C@H](CO)[C@@H](O)[C@H]2O)n1",
    "outcome": "inactive"
  },
  {
    "compound": "COCCOC(=O)C1=C(C)NC(C)=C(C(=O)OC/C=C/c2ccccc2)C1c1cccc([N+](=O)[O-])c1 (stereo not drawn)",
    "outcome": "inactive"
  },
  {
    "compound": "OCCN1CCN(CCCN2c3ccccc3Sc3ccc(Cl)cc32)CC1",
    "outcome": "inactive"
  },
  {
    "compound": "CNC(=O)Oc1ccc2c(c1)[C@]1(C)CCN(C)[C@@H]1N2C",
    "outcome": "inactive"
  },
  {
    "compound": "CSc1ccc2c(c1)C(N1CCN(C)CC1)Cc1ccccc1S2 (stereo not drawn)",
    "outcome": "inactive"
  },
  {
    "compound": "CC(C)(C)[C@]1(O)CCN2C[C@H]3c4ccccc4CCc4cccc(c43)[C@@H]2C1",
    "outcome": "inactive"
  },
  {
    "compound": "CN1CCN(C2Cc3ccccc3Sc3ccc(Cl)cc32)CC1 (stereo not drawn)",
    "outcome": "inactive"
  }
]

Reported outcome of COc1ccc(Cl)cc1C(=O)NCCc1ccc(S(=O)(=O)NC(=O)NC2CCCCC2)cc1 : inactive

Reported outcome of CCN(CC)CCOC(=O)C1(C2CCCCC2)CCCCC1 : inactive

Reported outcome of N=c1c[n+](N2CCOCC2)[n-]o1 : inactive

Reported outcome of Nc1cc(=O)[nH]c(N)n1 : inactive

Reported outcome of CN(C)CC[C@@H](c1ccc(Cl)cc1)c1ccccn1 : inactive

Reported outcome of CC[C@H]1CN2CCc3cc(OC)c(OC)cc3[C@@H]2C[C@@H]1C[C@H]1NCCc2cc(OC)c(OC)cc21 : inactive

Reported outcome of CSc1ccc2c(c1)N(CCC1CCCCN1C)c1ccccc1S2 (stereo not drawn) : inactive
